target: GST-human TopBP1 BRCT5 K686E/K687E (human, UniProt Q92547 641-746, K686E | K687E); assay: fluorescence polarisation
Sequence (Q92547 641-746 K686E/K687E): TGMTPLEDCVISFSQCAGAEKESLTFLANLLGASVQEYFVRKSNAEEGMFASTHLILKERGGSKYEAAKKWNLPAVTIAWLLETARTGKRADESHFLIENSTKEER
Square brackets hold non-standard residues; d marks the D form. * marks the point of attachment. FITC = O=C1OC2(c3ccc(O)cc3Oc3cc(O)ccc32)c2ccc(NC(=S)*)cc21; pS = N[C@@H](COP(=O)(O)O)C(=O)O
Property: Kd (µM)
The reply should contain only the number, in µM.

// field: Kd; key: {FITC}-DTDFVPP[pS]PEEII-NH2 [FITC-labelled BLM pSer304 peptide (FITC-DTDFVPPpSPEEII-NH2)] ; value = 36
